molecular target: SRC (Homo sapiens, UniProt P12931); construct: purchased Invitrogen; assay: In vitro kinase assay (Z'-LYTE), SRC; type: biochemical; settings: read-out: % of inhibition of the kinase compared to the control
Sequence (P12931 whole entry): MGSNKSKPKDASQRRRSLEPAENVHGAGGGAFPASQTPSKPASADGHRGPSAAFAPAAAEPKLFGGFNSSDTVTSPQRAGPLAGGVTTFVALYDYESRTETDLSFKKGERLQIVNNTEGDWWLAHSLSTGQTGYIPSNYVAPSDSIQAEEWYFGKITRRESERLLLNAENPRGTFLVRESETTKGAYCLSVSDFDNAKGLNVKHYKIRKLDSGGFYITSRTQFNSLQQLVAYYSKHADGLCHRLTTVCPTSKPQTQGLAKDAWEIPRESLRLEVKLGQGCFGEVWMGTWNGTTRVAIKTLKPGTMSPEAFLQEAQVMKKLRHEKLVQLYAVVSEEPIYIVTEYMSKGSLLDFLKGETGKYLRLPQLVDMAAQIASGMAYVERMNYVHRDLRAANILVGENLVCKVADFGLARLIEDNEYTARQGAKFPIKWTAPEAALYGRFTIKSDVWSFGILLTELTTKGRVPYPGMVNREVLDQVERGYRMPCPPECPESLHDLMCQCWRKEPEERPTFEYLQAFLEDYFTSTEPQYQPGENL
Attribute: inhibition at 0.1 µM

Here is how some molecules turned out for inhibition at 0.1 µM.
- CNC(=O)c1cc2cc(NCc3cc(NC(=O)c4ccc(CN5CCN(C)CC5)cc4)ccc3C)cnc2[nH]1 [OR0753]: ≥ 50%
- CC(=O)c1cc2cc(NCc3cc(NC(=O)c4ccc(C(F)(F)F)nc4)ccc3C)cnc2[nH]1 [OR0886]: < 50%
- CC(=O)c1cc2cc(NCc3cc(NS(=O)(=O)c4cccc(C(F)(F)F)c4)ccc3C)cnc2[nH]1 [OR0930]: < 50%

Could you now consider this next molecule?
## Task Param readout = inhibition at 0.1 µM; param system = SRC (Homo sapiens, UniProt P12931); param query = CC(=O)c1cc2cc(NC(=O)c3cc(NC(=O)Nc4cccc(C(F)(F)F)c4)ccc3C)cnc2[nH]1 [OR0951] ; response: value
## Result < 50%

Where do the numbers come from? From patent US9403823B2.
